Source: patent US20220177587A1

- tested_system: CD28 (Homo sapiens, UniProt P10747)
- method: Flow binding to Jurkat/IL2 reporter cells (CD28)
- Set-up: host or cells: Jurkat cells expressing an IL-2-luciferase reporter
- assay_setup: Table E23; CD80 IgV-Fc (inert) at 33.3 nM; Jurkat (CD28)
Mark T only for CD28 MFI at 33.3 nM values smaller than 3000; exact matches and larger values are F.

Below, 3 molecules whose answers are already recorded.
- molecule: "H18V/A26Q/E35D/M47V/V68L/A71G/D90G (protein, UniProt P33681 35-288, looked up, variant H18V A26Q E35D M47V V68L A71G D90G) T-lymphocyte activation …: VIHVTKEVKEVATLSCGVNVSVEELQQTRIYWQKDKKMVLTMMSGDVNIWPEYKNRTIFDITNNLSILILGLRPSDEGTYECVVLKYEKGAFKREHLAEVTLSVKADFPTPSISDFEIPTSNIRRIICSTSGGFPEPHLSWLENGEELNAINTTVSQDPETELYAVSSKLDFNMTTNHSFMCLIKYGHLRVNQTFNWNTTKQEHFPDNLLPSWAITLISVNGIFVICCLTYCFAPRCRERRRNERLRRESVRPV"
  classification: "F"
- molecule: "H18Y/A26P/E35D/M471/V68M/A71G (protein) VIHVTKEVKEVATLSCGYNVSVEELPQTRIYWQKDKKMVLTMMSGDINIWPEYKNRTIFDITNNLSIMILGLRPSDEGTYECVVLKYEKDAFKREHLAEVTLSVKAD"
  classification: "F"
- molecule: "H18F/A26N/E35D/M47V/V68M/A71G/D90K (protein, UniProt P33681 35-288, looked up, variant H18F A26N E35D M47V V68M A71G D90K) T-lymphocyte activation …: VIHVTKEVKEVATLSCGFNVSVEELNQTRIYWQKDKKMVLTMMSGDVNIWPEYKNRTIFDITNNLSIMILGLRPSDEGTYECVVLKYEKKAFKREHLAEVTLSVKADFPTPSISDFEIPTSNIRRIICSTSGGFPEPHLSWLENGEELNAINTTVSQDPETELYAVSSKLDFNMTTNHSFMCLIKYGHLRVNQTFNWNTTKQEHFPDNLLPSWAITLISVNGIFVICCLTYCFAPRCRERRRNERLRRESVRPV"
  classification: "F"

Criterion: CD28 MFI at 33.3 nM strictly below 3000. Is it met by H18T/A26N/E35D/M47L/V68M/A71G (protein, UniProt P33681 35-288, looked up, variant H18T A26N E35D M47L V68M A71G, Fc fusion) T-lymphocyte activation …: VIHVTKEVKEVATLSCGTNVSVEELNQTRIYWQKDKKMVLTMMSGDLNIWPEYKNRTIFDITNNLSIMILGLRPSDEGTYECVVLKYEKDAFKREHLAEVTLSVKADFPTPSISDFEIPTSNIRRIICSTSGGFPEPHLSWLENGEELNAINTTVSQDPETELYAVSSKLDFNMTTNHSFMCLIKYGHLRVNQTFNWNTTKQEHFPDNLLPSWAITLISVNGIFVICCLTYCFAPRCRERRRNERLRRESVRPV ?
T

# strict comparison: is reported CD28 MFI at 33.3 nM < 3000? input = H18C/A26P/E35D/M47L/V68M/A71G (protein, UniProt P33681 35-288, looked up, variant H18C A26P E35D M47L V68M A71G) T-lymphocyte activation …: VIHVTKEVKEVATLSCGCNVSVEELPQTRIYWQKDKKMVLTMMSGDLNIWPEYKNRTIFDITNNLSIMILGLRPSDEGTYECVVLKYEKDAFKREHLAEVTLSVKADFPTPSISDFEIPTSNIRRIICSTSGGFPEPHLSWLENGEELNAINTTVSQDPETELYAVSSKLDFNMTTNHSFMCLIKYGHLRVNQTFNWNTTKQEHFPDNLLPSWAITLISVNGIFVICCLTYCFAPRCRERRRNERLRRESVRPV
T
